- assay.system: KRas G12D (Homo sapiens, UniProt P01116, G12D);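 also: TR-FRET displacement binding assay on KRas, read after a one-hour incubation at room temperature, IC50 fitted from percent-of-control values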
- Sequence (P01116 1-169 isoform P01116-2 G12D): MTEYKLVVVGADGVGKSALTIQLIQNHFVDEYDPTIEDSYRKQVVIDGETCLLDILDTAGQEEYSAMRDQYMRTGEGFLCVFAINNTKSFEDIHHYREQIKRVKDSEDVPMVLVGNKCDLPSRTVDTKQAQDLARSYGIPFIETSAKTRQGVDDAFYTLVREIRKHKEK
- test.name: biochemical
Define the label as T when IC50 is strictly less than 80 nM and as F in all remaining cases.

Example results:
Given the entry O=S1(=O)CC(CNc2nc(OCC34CCCN3CCC4)nc3c(F)c(-c4cccc5cccc(F)c45)ncc23)C1 , would its reported IC50 be below 80 nM?
F

In plain terms, does CCc1c(F)ccc2cc(O)cc(-c3ncc4c(N5C[C@H](C)C[C@@H](O)C5)nc(OC[C@@]56CCCN5C[C@H](F)C6)nc4c3F)c12 come in under 80 nM for IC50?
T

For this molecule, is IC50 lower than 80 nM? CCc1cccc2cccc(-c3ncc4c(N5CC6C(=O)NC(=O)C6C5)nc(OCC56CCCN5CCC6)nc4c3F)c12 (stereo not drawn)
T

Continuing:
Please indicate whether the reported IC50 of CCc1c(F)ccc2cc(O)cc(-c3ncc4c(N5CCC[C@]6(CC(=O)N6)C5)nc(OC[C@@]56CCCN5C[C@H](F)C6)nc4c3F)c12 (single isomer, unassigned) is strictly below 80 nM.
T

Dear reviewer, please state whether CCc1c(F)ccc2cc(O)cc(-c3ncc4c(NC[C@H]5COC[C@H]5O)nc(OC[C@@]56CCCN5C[C@H](F)C6)nc4c3F)c12 (single isomer, unassigned) has IC50 strictly beneath 80 nM.
F

Decide: IC50 of O=S1(=O)NCCC2(CCCN(c3nc(OCC45CCCN4CCC5)nc4c(F)c(-c5cccc6cccc(F)c56)ncc34)C2)N1 (stereo not drawn) strictly below 80 nM?
F

----------
# key: entry, value: IC50
- System: pERK in A549 cells
- test.name: Inhibition of KRas phosphorylation of ERK (Cisbio HTRF pERK assay)
- experimental.parameters: Homo sapiens, A549, read-out: Inhibition (HTRF IC50) of KRas-mediated Phosphorylation of ERK, A549
Answer with the number, then the unit.

Below, 5 compounds whose answers are already recorded.
get_value(item= CCc1c(F)ccc2cc(O)cc(-c3ncc4c(N5CCC[C@@](C)(O)C5)nc(OCC5(CN6CCCC6)CC5)nc4c3F)c12 , readout=IC50) returns 9 nM

IC50 reading for CCc1c(F)ccc2cc(O)cc(-c3ncc4c(N5CCCn6nc(C(=O)NC(C)C)cc6C5)nc(OC[C@@]56CCCN5C[C@H](F)C6)nc4c3F)c12 : 576 nM

Quick note, IC50 for CCc1c(F)ccc2cc(O)cc(-c3ncc4c(N5CCCn6nc(C(=O)N(C)C)c(Cl)c6C5)nc(OC[C@@]56CCCN5C[C@H](F)C6)nc4c3F)c12 landed at 11 nM

Short answer for CCc1c(F)ccc2cc(O)cc(-c3ncc4c(N5CCOC[C@@]6(C5)CC6(F)F)nc(OC[C@@]56CCCN5C[C@H](F)C6)nc4c3F)c12 : IC50 was 48 nM

Recorded result, CCc1c(F)ccc2cc(O)cc(-c3ncc4c(N5CCC[C@@](C)(O)C5)nc(OC[C@@H]5CCCN5C)nc4c3F)c12 , IC50: 156 nM

Others:
compound CCc1c(F)ccc2cc(O)cc(-c3ncc4c(N5CCC[C@]6(C5)C[C@@H](O)C6)nc(OC[C@@]56CCCN5C[C@H](F)C6)nc4c3F)c12 (single isomer, unassigned) , IC50 observed: 95 nM

So for CCc1c(F)ccc2cc(O)cc(-c3ncc4c(N5CCCCCC5)nc(OC[C@@]56CCCN5C[C@H](F)C6)nc4c3F)c12 , the logged IC50 turned out to be 197 nM

The compound CCc1c(F)ccc2cc(O)cc(-c3ncc4c(N5CCOCC(C)(O)C5)nc(OC[C@@]56CCCN5C[C@H](F)C6)nc4c3F)c12 (stereo partly drawn) showed IC50 equal to 19 nM

# IC50 of CCc1c(F)ccc2cc(O)cc(-c3ncc4c(N5CC6CC(O)C(C6)C5)nc(OC[C@@]56CCCN5C[C@H](F)C6)nc4c3F)c12 (stereo partly drawn) = 15 nM

The measured IC50 associated with Oc1cc(-c2ncc3c(N4CC5CC(O)C(C5)C4)nc(OC[C@@]45CCCN4C[C@H](F)C5)nc3c2F)c2c(Br)c(F)ccc2c1 (stereo partly drawn) reads 34 nM

Lab note: measured IC50 of O=C1NC(=O)C2(CCCN(c3nc(OC[C@@]45CCCN4C[C@H](F)C5)nc4c(F)c(-c5cc(O)cc6ccc(F)c(F)c56)ncc34)C2)N1 (stereo partly drawn) was 734 nM

Memo: CCc1c(F)ccc2cc(O)cc(-c3ncc4c(N5CCCC6(CNS(=O)(=O)N6)C5)nc(OC[C@@]56CCCN5C[C@H](F)C6)nc4c3F)c12 (stereo partly drawn) , reported IC50: 84 nM
